B1: tRNA (parent)
chain: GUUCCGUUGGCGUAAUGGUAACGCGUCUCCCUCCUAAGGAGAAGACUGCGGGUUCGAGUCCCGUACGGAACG

variants of: B1; experiment: yeast fitness relative to wild type (ratio to wild type); higher = fitter; tRNA-Arg(CCU), competitive growth, 37 C, YPD
Fewer inactive variants are shown than the library holds.

- variant string: "A21G A40G A42C U53A U54C"
  inequality operator: "≤"
  yeast fitness: 0.5
- variant string: "G9C A14G C66U"
  inequality operator: "≤"
  yeast fitness: 0.5
- variant string: "U13A A57U U64G A65G"
  inequality operator: "≤"
  yeast fitness: 0.5
- variant string: "A15C G23C C31U A57C C66U"
  inequality operator: "≤"
  yeast fitness: 0.5
- variant string: "C22U C55U G67C"
  inequality operator: "≤"
  yeast fitness: 0.5
- variant string: "C4G U32A C34G G41C G68A"
  inequality operator: "≤"
  yeast fitness: 0.5
- variant string: "G12C A15U C24A U54A C62U A65G G68A"
  inequality operator: "≤"
  yeast fitness: 0.5
- variant string: "C30A A45G U53A"
  inequality operator: "="
  yeast fitness: 1.1
- variant string: "A15G C24U C29U C30G U35G A70G"
  inequality operator: "≤"
  yeast fitness: 0.5
- variant string: "C27A A57C C62U"
  inequality operator: "="
  yeast fitness: 0.531
- variant string: "A15C C29U A69C"
  inequality operator: "≤"
  yeast fitness: 0.5
- variant string: "C27G C30U U32C G51C"
  inequality operator: "="
  yeast fitness: 0.603
- variant string: "C34G G39A"
  inequality operator: "="
  yeast fitness: 0.703
- variant string: "C22U C24G C49G G56A"
  inequality operator: "≤"
  yeast fitness: 0.5
- variant string: "A15G A36C U47A G48C U54G A65C"
  inequality operator: "≤"
  yeast fitness: 0.5
- variant string: "C4U C5U"
  inequality operator: "="
  yeast fitness: 1.01
- variant string: "C5G A14C G18A A21G A36U A45U"
  inequality operator: "≤"
  yeast fitness: 0.5
- variant string: "G6A G41C C55G"
  inequality operator: "="
  yeast fitness: 0.529
- variant string: "C22G C27G C31G A69U"
  inequality operator: "="
  yeast fitness: 0.554
- variant string: "C5U U47G G50C"
  inequality operator: "="
  yeast fitness: 0.575
- variant string: "U7G U16G C61U"
  inequality operator: "≤"
  yeast fitness: 0.5
- variant string: "G9C C27U G52C"
  inequality operator: "≤"
  yeast fitness: 0.5
- variant string: "U2A U16G A69C"
  inequality operator: "="
  yeast fitness: 0.85
- variant string: "U28G C46G C49U C61A"
  inequality operator: "≤"
  yeast fitness: 0.5
- variant string: "C31U G50A"
  inequality operator: "="
  yeast fitness: 0.904
- variant string: "A40G C60U"
  inequality operator: "="
  yeast fitness: 0.674
- variant string: "C31A C33U C55G"
  inequality operator: "≤"
  yeast fitness: 0.5
- variant string: "A14G A15U U32G C34G U47C G63C"
  inequality operator: "≤"
  yeast fitness: 0.5
- variant string: "C4U A45U C66G"
  inequality operator: "="
  yeast fitness: 0.598
- variant string: "C4U C66U"
  inequality operator: "="
  yeast fitness: 0.978
- variant string: "C5G C27G C33U G56A U64C A69U"
  inequality operator: "≤"
  yeast fitness: 0.5
- variant string: "G18A C33U A57G"
  inequality operator: "≤"
  yeast fitness: 0.5
- variant string: "A21U A36G C55A G67C"
  inequality operator: "≤"
  yeast fitness: 0.5
- variant string: "C4U G25A A65G"
  inequality operator: "="
  yeast fitness: 0.718
- variant string: "U16C C66U"
  inequality operator: "="
  yeast fitness: 0.891
- variant string: "U13C C22G G68C"
  inequality operator: "="
  yeast fitness: 0.542
- variant string: "G12A C49A U54A"
  inequality operator: "≤"
  yeast fitness: 0.5
- variant string: "A36G A42U U53C G58C"
  inequality operator: "="
  yeast fitness: 0.569
- variant string: "C4G A42U G50C C62A G67U"
  inequality operator: "≤"
  yeast fitness: 0.5
- variant string: "U2C C11A C22G G41A A43C G51C C66U G67C"
  inequality operator: "≤"
  yeast fitness: 0.5
- variant string: "U19G C55U"
  inequality operator: "="
  yeast fitness: 0.762
- variant string: "A21G C27U A70G"
  inequality operator: "="
  yeast fitness: 0.792
- variant string: "C30U G51A C66U A70C"
  inequality operator: "≤"
  yeast fitness: 0.5
- variant string: "C5A C29G G56C U59A"
  inequality operator: "="
  yeast fitness: 0.717
- variant string: "A15C G68U"
  inequality operator: "="
  yeast fitness: 0.735
- variant string: "C11A A15C C34A C66A"
  inequality operator: "≤"
  yeast fitness: 0.5
